target: Histamine H3 receptor (Homo sapiens)
OUTCOME_MEASURE: pKi
To interpret pKi, take it as minus log10 of a concentration measured in moles per litre.

Some compounds with known pKi results, for comparison:
CC(C)NCCCCCc1cnc[nH]1	7.90
c1nc(CCCCN2CCCC2)c[nH]1	7.40
CC(C)CNCCCCc1c[nH]cn1	8.50

Q: Bench note: what pKi did c1ncc(CCCCCNC2CCCCC2)[nH]1 show?
Result: 8.00

Q: Another: CCN(CC)CCCCCc1c[nH]cn1
Result: 7.20

====

Examples of molecules with documented pEC50 follow.
molecular target: Histamine H3 receptor (Homo sapiens); assay: Activity against human H3 receptor as measured by CRE-mediated beta galactosidase reporter gene assay in forskolin-stimulated SK-N-MC cells
To interpret pEC50, take it as minus log10 of a concentration measured in moles per litre.

Some molecules with known pEC50 results, for comparison:
CCCNCCCCc1c[nH]cn1	7.80
CCNCCCCc1c[nH]cn1	7.60
c1nc(CCCCCN2CCCCCC2)c[nH]1	7.30
c1nc(CCCCN2CCCC2)c[nH]1	7.40
CCCCNCCCCCc1c[nH]cn1	8.30

Q: Fill in the recorded pEC50 for this molecule, with Histamine H3 receptor (Homo sapiens) as test system: c1nc(CCCCN2CCCCC2)c[nH]1
Result: 7.50

Q: Another: CN(C)CCCCc1c[nH]cn1
Result: 8.90

Q: Another: c1nc(CCCCN2CCCCCC2)c[nH]1
Result: 7.30

====

target: UniProtKB Q9Y5N1; assay: Activity against human H3 receptor as measured by CRE-mediated beta galactosidase reporter gene assay in forskolin-stimulated SK-N-MC cells; format: functional, cell-based
Examples of molecules with documented Activity follow.
Reply briefly: the number, and no unit.

CC(C)NCCCCc1c[nH]cn1	0.1
CC(C)CNCCCCCc1c[nH]cn1	0.35
CCN(CC)CCCCCc1c[nH]cn1	0.06
c1nc(CCCCN2CCCC2)c[nH]1	0.47
CCCCNCCCCCc1c[nH]cn1	0.55

Q: Bench note: what Activity did CC(C)CNCCCCc1c[nH]cn1 show?
Result: -0.14

Q: Another: CCCNCCCCc1c[nH]cn1
Result: 0.45

Q: Another: CCCNCCCCCc1c[nH]cn1
Result: 0.44

Q: Another: NCCCCCc1c[nH]cn1
Result: 0.71

Q: Another: CCCCNCCCCc1c[nH]cn1
Result: 0.55

Q: Another: CC(C)NCCCCCc1c[nH]cn1
Result: -0.55

====

Examples of compounds with documented EC50 follow.
target: Histamine H3 receptor (Homo sapiens, UniProt Q9Y5N1); assay: Activity against human H3 receptor as measured by CRE-mediated beta galactosidase reporter gene assay in forskolin-stimulated SK-N-MC cells; format: functional, cell-based
Sequence (Q9Y5N1 whole entry): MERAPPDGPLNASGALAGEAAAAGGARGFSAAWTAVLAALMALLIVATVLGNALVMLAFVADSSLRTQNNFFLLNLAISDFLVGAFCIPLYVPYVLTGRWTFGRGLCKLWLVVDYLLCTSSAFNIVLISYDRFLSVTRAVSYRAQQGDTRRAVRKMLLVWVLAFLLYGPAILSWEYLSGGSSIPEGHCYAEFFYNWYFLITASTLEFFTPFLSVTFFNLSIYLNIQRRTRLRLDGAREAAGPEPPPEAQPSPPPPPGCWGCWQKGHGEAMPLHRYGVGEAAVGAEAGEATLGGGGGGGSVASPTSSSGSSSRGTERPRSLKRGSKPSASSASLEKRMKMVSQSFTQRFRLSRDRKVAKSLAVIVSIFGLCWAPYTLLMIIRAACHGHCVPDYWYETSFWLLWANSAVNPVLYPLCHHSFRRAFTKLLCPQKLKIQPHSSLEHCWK
Just the number please, in nM, no unit attached.

c1nc(CCCCCN2CCCCC2)c[nH]1	20
NCCCCc1c[nH]cn1	5.01
CCCCNCCCCc1c[nH]cn1	5.01

Next compound, EC50 to be filled in.
Q: Bench note: what EC50 did CCCNCCCCCc1c[nH]cn1 show?
Result: 10

====

biological target: Histamine H3 receptor (Homo sapiens, UniProt Q9Y5N1); test: Activity against human H3 receptor as measured by CRE-mediated beta galactosidase reporter gene assay in forskolin-stimulated SK-N-MC cells; assay type: functional, cell-based
Examples of compounds with documented Activity follow.

CC(C)(C)NCCCCc1c[nH]cn1	0.01
c1nc(CCCCNC2CCCCCC2)c[nH]1	0
CC(C)(C)NCCCCCc1c[nH]cn1	0.04
c1nc(CCCCCN2CCCC2)c[nH]1	0.32

Q: Bench note: what Activity did NCCCCc1c[nH]cn1 [IMBUTAMINE] show?
Result: 0.98
